Target: T1, mouse sclerostin (mouse)
T1 chain: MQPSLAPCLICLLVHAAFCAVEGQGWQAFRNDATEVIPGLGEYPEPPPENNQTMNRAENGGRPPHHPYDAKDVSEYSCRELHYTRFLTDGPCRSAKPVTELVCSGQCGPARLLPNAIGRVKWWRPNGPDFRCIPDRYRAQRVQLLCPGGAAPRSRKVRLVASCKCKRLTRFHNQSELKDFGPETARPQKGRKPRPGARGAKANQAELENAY
Assay: SPR, pH 7.4, 37C
Task for the reader: assign each of the following binders its reported Kd.
Numbers only, in nM.

mabA_NpH1 (antibody, V domains shown) VH: EVQLVQSGAEVKKPGASVKVSCKASGYTFTDYNMHWVRQAPGQGLEWMGEINPNSGGAGYNQKFKGRVTMTTDTSTSTAYMELRSLRSDDTAVYYCARLGYDDIYDDWYFHVWGQGTTVTVSS VL: DIQMTQSPSSLSASVGDRVTITCRASQDISNYLNWYQQKPGKAPKLLIYHTSRLLSGVPSRFSGSGSGTDFTLTISSLQPEDFATYYCQQGDTLPYTFGGGTKVEIK
0.204

Now consider the entry below.
For the binder mabA_pH4 (antibody, V domains shown) VH: EVQLVQSGAEVKKPGASVKVSCKASGYTFTDYNMHWVRQAPGQGLEWMGEINPHSGHAGYNQKFKGRVTMTTDTSTSTAYMELRSLRSDDTAVYYCARLHYDDIHDDWYFDVWGQGTTVTVSS VL: DIQMTQSPSSLSASVGDRVTITCRASHDIHNYLNWYQQKPGKAPKLLIYYTSRLLSGVPSRFSGSGSGTDFTLTISSLQPEDFATYYCQQGDTLPYTFGGGTKVEIK , what Kd is on record? 1.73
